# Tested on: RSK1(Kin.Dom.1-N-terminal)
# Construct: gene RPS6KA1
# condition: concentration: 1 μM, replicates: in singlicate; n = 1;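 further: KINOMEscan kinase panel screen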
# label = t if %Inh < 20% else f

molecule	qualitative-label
COc1ccc(Nc2nccc(N3CCC(NC(=O)c4cc5ccccc5s4)C3)n2)cc1 (stereo not drawn)	f
COc1cccc(CNC(=O)NC2CCN(c3ccnc(Nc4ccc(F)cc4)n3)C2)c1 (stereo not drawn)	t
COc1ccc(CSc2nnc(-c3ccc4nccn4c3)o2)cc1C(F)(F)F	t
COc1cc2ncnc(Nc3cccc(Br)c3)c2cc1OC.Cl	t
COC(=O)c1cccc(NC(=O)NC2CCN(c3ccnc(Nc4ccc(F)cc4)n3)C2)c1 (stereo not drawn)	t
Fc1ccc(-c2nc[nH]c2-c2ccncc2)cc1	t
Cn1cncc1-c1cc2c(Nc3ccc(OCc4ccccc4)cc3)ncnc2cn1	f
COC(=O)C(NC(=O)NC1CCN(c2ccnc(Nc3ccc(F)cc3)n2)C1)c1ccccc1 (stereo not drawn)	f
CCn1c(-c2c(N)noc2C)nc2cnccc21	f
NS(=O)(=O)c1cccc(N/C=C2\C(=O)Nc3ccc(S(=O)(=O)Cc4c(Cl)cccc4Cl)cc32)c1	t
CNCc1ccc2nc(NC(=O)c3ccc(C(C)(C)C)cc3)cn2c1	t
Cn1cnc2c(N)ncnc21	f
Cn1cncc1C(=O)NC1CCN(c2ccnc(Nc3ccc(F)cc3)n2)C1 (stereo not drawn)	t
Cc1ccc(NC(=O)c2ccc(Cl)cc2)cc1-c1ccc(C(=O)Nc2ccncc2)cc1	t
Cc1c(Cn2c(C)c(C)n3c(=O)cc(N4CCOCC4)nc23)cccc1C(F)(F)F	t
CS(=O)(=O)CCNCc1nc(-c2ccc3ncnc(Nc4ccc(OCc5ccccc5)c(Cl)c4)c3c2)cs1.Cl	f
Cc1ccc(NC(=O)Nc2ccccc2F)cc1-c1ccc(C(=O)Nc2ccncc2)cc1	f
Cc1ccccc1-c1cc(-c2c[nH]nc2-c2ccccn2)ccn1	t

---

Reported %Inh values follow for various compounds
# Test system: YANK1
# Construct: gene STK32A
# condition: concentration: 1 μM, replicates: in singlicate; n = 1
reported-metric: %Inh (%)

chem-smiles	reported-metric	display-unit	quantitative-readout
NS(=O)(=O)c1cccc(N/C=C2\C(=O)Nc3ccc(S(=O)(=O)Cc4c(Cl)cccc4Cl)cc32)c1	%Inh	%	1
CN1c2ccc(-c3ccc(C(N)=O)cc3)cc2-c2[nH]ncc2S1(=O)=O	%Inh	%	0
Nc1nccc(-c2c(-c3ccc(F)cc3)ncn2C2CCN(Cc3ccccc3)CC2)n1	%Inh	%	28
COc1nccc(-c2c(-c3ccc(F)cc3)ncn2CCCN2CCOCC2)n1	%Inh	%	0

---

# Tested on: RIPK2
# condition: concentration: 1 μM, replicates: in singlicate; n = 1
// %Inh lookup, one value per entry

compound	subject-of-test	display-unit	%Inh
COc1cc2ncnc(Nc3cccc(Br)c3)c2cc1OC.Cl	RIPK2	%	38
CNCc1ccc2nc(NC(=O)c3ccc(C(C)(C)C)cc3)cn2c1	RIPK2	%	2
Cc1ccc(NC(=O)c2ccc(Cl)cc2)cc1-c1ccc(C(=O)Nc2ccncc2)cc1	RIPK2	%	12
Cc1c(Cn2c(C)c(C)n3c(=O)cc(N4CCOCC4)nc23)cccc1C(F)(F)F	RIPK2	%	11
COc1nccc(-c2c(-c3ccc(F)cc3)ncn2CCCN2CCOCC2)n1	RIPK2	%	0
Cc1ccc(NC(=O)Nc2ccccc2)cc1-c1ccc(C(=O)Nc2ccncc2)cc1	RIPK2	%	12
O=C(Nc1n[nH]c2nc(-c3ccco3)c(Br)cc12)C1CCN(Cc2ccccc2)C1.O=C(O)[C@H](O)[C@@H](O)C(=O)O (stereo not drawn)	RIPK2	%	0
Nc1cccc(-c2ccc3c(N)n[nH]c3c2)n1	RIPK2	%	0
Cc1c(Cn2c3ccccc3n3c(=O)cc(N4CCOCC4)nc23)cccc1C(F)(F)F	RIPK2	%	0

Source: paper PMC5540273
